# test_details: Terminal elimination half life in fasted male cynomolgus monkey at 9 mg/kg, po administered as single dose
# Type: ADME, organism-based, Macaca fascicularis
# run_conditions: in vivo, read-out: beta t1/2 (converted)
value_type: half-life

In: What half-life value was documented for this compound, "N#Cc1cccc(S(=O)(=O)c2cnc3cc(F)ccc3c2-c2ccc(Cl)cc2)c1" ?
Out: 1.4 h

* * *

# test_details: AUC in male Crl:CD(SD) rat at 4.5 mg/kg, po
# Assay type: ADME, organism-based
# run_conditions: in vivo
value_type: AUC (µM·h)
Express your answer in µM·h, writing the number without its unit.

In: Would you mind telling me what AUC value was observed for "N#Cc1cccc(S(=O)(=O)c2cnc3cc(F)ccc3c2-c2ccc(Cl)cc2)c1" ?
Out: 2.19

* * *

# test_target: Metabotropic glutamate receptor 5 (Homo sapiens)
# test_details: Displacement of [3H]M-MPEP from recombinant human mGluR5a expressed in human A18 cell membrane homogenate
value_type: Ki (nM)
Please state the figure in nM; there is no need to write the unit.

In: Give its Ki value. Item: "N#Cc1cccc(S(=O)(=O)c2cnc3cc(F)ccc3c2-c2ccc(Cl)cc2)c1"
Out: 4.9

* * *

# test_details: Plasma concentration in ip dosed Wistar rat at anxiolytic MED administered as suspension after 45 mins during Vogel punished drinking conflict test
# Type: ADME, organism-based
Binary classification by concentration at 0.75 h, with 90 nM as an inclusive lower bound for true; all other cases are false.

In: Check if concentration at 0.75 h >= 90 nM (inclusive). Item: "O=S(=O)(c1cccc(F)c1)c1cnc2c(F)cccc2c1-c1ccc(F)cc1"
Out: true

In: Please check the record "N#Cc1cccc(S(=O)(=O)c2cnc3cc(F)ccc3c2-c2ccc(Cl)cc2)c1" and state if its concentration at 0.75 h is at or above 90 nM.
Out: false

In: Textbook exercise: given the entry "O=S(=O)(c1cc(F)cc(F)c1)c1cnc2c(F)cccc2c1-c1ccc(F)cc1" , state whether its concentration at 0.75 h is greater than or equal to 90 nM.
Out: true

In: Does concentration at 0.75 h meet or surpass 90 nM for "O=S(=O)(c1ccc(F)c(Cl)c1)c1cnc2cc(F)ccc2c1-c1ccc(Cl)cc1" ?
Out: true

In: State whether the measured concentration at 0.75 h reaches 90 nM, counting equality as reaching it, for "N#Cc1cccc(S(=O)(=O)c2cnc3cc(F)ccc3c2-c2ccc(F)cc2)c1"
Out: true

* * *

# test_target: UniProtKB P31424
# Sequence (P31424 whole entry): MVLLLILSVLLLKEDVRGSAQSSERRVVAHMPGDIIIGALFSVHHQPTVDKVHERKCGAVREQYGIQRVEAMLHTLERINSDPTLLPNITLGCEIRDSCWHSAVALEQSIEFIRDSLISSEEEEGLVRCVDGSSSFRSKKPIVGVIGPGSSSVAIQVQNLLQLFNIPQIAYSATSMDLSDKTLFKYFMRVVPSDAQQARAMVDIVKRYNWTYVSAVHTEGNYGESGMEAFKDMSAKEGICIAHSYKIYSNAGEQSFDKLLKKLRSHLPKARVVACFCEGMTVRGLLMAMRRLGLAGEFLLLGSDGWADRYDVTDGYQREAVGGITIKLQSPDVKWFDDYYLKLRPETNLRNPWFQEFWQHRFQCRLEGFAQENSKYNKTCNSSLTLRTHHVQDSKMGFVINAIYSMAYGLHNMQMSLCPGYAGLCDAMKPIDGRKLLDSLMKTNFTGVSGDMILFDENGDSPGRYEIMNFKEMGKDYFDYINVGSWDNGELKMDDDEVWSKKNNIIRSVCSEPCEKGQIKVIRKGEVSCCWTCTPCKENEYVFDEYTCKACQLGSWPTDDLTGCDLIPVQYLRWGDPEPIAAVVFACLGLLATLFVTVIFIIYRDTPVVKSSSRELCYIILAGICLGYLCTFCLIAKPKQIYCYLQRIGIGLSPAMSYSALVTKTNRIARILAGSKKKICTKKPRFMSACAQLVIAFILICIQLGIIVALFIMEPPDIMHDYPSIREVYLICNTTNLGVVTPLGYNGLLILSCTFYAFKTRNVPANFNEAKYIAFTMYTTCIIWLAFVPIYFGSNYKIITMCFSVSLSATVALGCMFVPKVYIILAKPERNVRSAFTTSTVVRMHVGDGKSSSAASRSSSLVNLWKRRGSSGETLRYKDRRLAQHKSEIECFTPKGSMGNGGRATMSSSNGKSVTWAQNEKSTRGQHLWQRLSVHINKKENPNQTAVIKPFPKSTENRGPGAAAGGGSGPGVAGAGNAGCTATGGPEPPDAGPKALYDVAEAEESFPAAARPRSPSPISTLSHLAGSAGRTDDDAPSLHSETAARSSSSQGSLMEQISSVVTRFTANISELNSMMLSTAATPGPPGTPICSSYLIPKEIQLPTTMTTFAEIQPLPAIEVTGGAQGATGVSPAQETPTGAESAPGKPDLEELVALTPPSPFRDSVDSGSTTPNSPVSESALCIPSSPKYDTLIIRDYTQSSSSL
pKi: −log10 of the molar value.
Give condition met when the value for pKi is at least 8. Give condition not met when it is less.

O=S(=O)(c1ccc(F)cc1)c1cnc2cc(F)ccc2c1-c1ccc(Cl)cc1 = condition not met

In: Record "O=S(=O)(c1ccc(F)c(Cl)c1)c1cnc2cc(F)ccc2c1-c1ccc(F)cc1" ; criterion: pKi no lower than 8. Met?
Out: condition met

In: Assess whether reported pKi for "O=S(=O)(c1ccc(F)cc1)c1cnc2c(F)c(Cl)ccc2c1-c1ccc(Cl)cc1" sits at 8 or higher.
Out: condition not met

In: Determine whether measured pKi meets or exceeds 8 for "O=S(=O)(c1cccc(F)c1)c1cnc2c(F)cccc2c1-c1ccc(F)cc1"
Out: condition not met

In: Textbook exercise: given the entry "O=S(=O)(c1cc(F)cc(F)c1)c1cnc2cc(F)ccc2c1-c1ccc(F)cc1" , state whether its pKi is greater than or equal to 8.
Out: condition not met

* * *

# Test system: Liver
# test_details: Intrinsic clearance in dog liver microsomes at 2.5 uM assessed per gram of liver
# Format: ADME, Canis lupus familiaris, microsome
value_type: CLint (mL/min/g)
Just the number in mL/min/g, nothing appended.

In: Need CLint, item "N#Cc1cccc(S(=O)(=O)c2cnc3cc(F)ccc3c2-c2ccc(Cl)cc2)c1"
Out: 0.27

* * *

# Test system: Liver
# test_details: Intrinsic clearance in rat liver microsomes at 2.5 uM assessed per gram of liver
# Assay type: ADME, microsome
value_type: CLint (mL/min/g)
Write it as a number; the unit mL/min/g goes unstated.

O=S(=O)(c1cc(Cl)cc(Cl)c1)c1cnc2cc(F)ccc2c1-c1cccc(F)c1 = 1.53

In: Name the reported CLint value associated with the compound "O=S(=O)(c1cc(F)cc(F)c1)c1cnc2cc(F)ccc2c1-c1cccc(F)c1"
Out: 1.8

In: What does the data say about its CLint? Entry: "N#Cc1ccc2ncc(S(=O)(=O)c3ccc(F)cc3)c(-c3ccc(Cl)cc3)c2c1"
Out: 0.04

In: Would you mind telling me what CLint value was observed for "O=S(=O)(c1ccc(F)cc1)c1cnc2cc(Cl)ccc2c1-c1ccc(Cl)cc1" ?
Out: 0.01

In: Value lookup for CLint; key = "O=S(=O)(c1ccc(F)cc1)c1cnc2cc(Cl)c(F)cc2c1-c1ccc(Cl)cc1"
Out: 0.57

In: # CLint lookup, item "O=S(=O)(c1ccc(F)cc1)c1cnc2c(F)cc(Cl)cc2c1-c1ccc(Cl)cc1"
Out: 0.09

In: Look up CLint: "O=S(=O)(c1ccc(F)cc1)c1cnc2c(F)cccc2c1-c1ccc(Cl)cc1"
Out: 0.06

In: Requested read-out: CLint. Entry: "O=S(=O)(c1ccc(F)c(Cl)c1)c1cnc2cc(F)ccc2c1-c1ccc(F)cc1"
Out: 0.89

In: Using the record for "O=S(=O)(c1ccc(F)c(F)c1)c1cnc2cc(F)ccc2c1-c1ccc(Cl)cc1" , report its CLint.
Out: 1.41

* * *

List of TI values.
# Test system: Rattus norvegicus
# test_details: Therapeutic index, ratio of MED for effect on spatial learning performance in po dosed Wistar rat by Morris water maze test to MED for anxiolytic activity in Wistar rat by Vogel punished drinking conflict test
Enter a number only.

O=S(=O)(c1ccc(F)c(Cl)c1)c1cnc2cc(F)ccc2c1-c1ccc(Cl)cc1 = 10

# next compound below
In: GET /values?readout=TI&item= "N#Cc1cccc(S(=O)(=O)c2cnc3cc(F)ccc3c2-c2ccc(F)cc2)c1"
Out: 10

* * *

Consider the following compounds and their measured IC50 readings.
# test_target: Metabotropic glutamate receptor 5 (Homo sapiens, UniProt P41594)
# Sequence (P41594 whole entry): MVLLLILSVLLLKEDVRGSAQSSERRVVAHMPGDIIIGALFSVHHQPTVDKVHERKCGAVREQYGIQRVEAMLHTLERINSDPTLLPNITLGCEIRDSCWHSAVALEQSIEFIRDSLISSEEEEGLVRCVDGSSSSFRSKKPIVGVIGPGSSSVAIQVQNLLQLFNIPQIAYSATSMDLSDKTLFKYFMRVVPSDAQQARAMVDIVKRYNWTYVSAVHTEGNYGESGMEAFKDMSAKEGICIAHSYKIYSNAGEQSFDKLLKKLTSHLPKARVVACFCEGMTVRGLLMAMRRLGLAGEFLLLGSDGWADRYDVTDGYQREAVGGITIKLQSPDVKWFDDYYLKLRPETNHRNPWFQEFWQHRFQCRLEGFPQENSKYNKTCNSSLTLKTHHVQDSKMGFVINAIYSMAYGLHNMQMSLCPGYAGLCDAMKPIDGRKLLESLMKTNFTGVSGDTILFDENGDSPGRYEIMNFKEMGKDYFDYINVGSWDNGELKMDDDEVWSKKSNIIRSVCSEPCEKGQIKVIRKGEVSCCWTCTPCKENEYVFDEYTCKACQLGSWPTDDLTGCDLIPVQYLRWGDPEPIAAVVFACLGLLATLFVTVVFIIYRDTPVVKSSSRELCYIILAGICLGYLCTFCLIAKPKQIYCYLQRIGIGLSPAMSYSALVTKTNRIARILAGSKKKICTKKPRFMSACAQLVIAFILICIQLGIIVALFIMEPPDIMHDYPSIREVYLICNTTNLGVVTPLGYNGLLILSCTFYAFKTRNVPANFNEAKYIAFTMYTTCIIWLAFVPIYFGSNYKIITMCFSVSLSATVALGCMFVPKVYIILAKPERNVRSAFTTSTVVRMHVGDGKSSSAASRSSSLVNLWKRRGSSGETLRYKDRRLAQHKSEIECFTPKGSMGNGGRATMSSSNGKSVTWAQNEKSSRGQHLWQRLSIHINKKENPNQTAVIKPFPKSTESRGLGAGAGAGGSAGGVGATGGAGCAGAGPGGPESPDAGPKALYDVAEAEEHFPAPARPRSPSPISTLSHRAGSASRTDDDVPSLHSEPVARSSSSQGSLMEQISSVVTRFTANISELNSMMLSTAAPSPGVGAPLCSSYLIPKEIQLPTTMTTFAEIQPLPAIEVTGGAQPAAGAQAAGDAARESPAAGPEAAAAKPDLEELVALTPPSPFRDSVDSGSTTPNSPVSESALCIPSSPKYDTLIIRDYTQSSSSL
# test_details: Negative allosteric modulation of human mGluR5a expressed in CHO cells assessed as reduction in DHPG-induced cytosolic Ca2+ influx after 10 to 20 mins by fluo-4/AM-dye based fluorometric analysis
Give the value in nM but do not write nM after it.

O=S(=O)(c1cc(Cl)cc(Cl)c1)c1cnc2c(F)cccc2c1-c1ccc(F)cc1 = 25
O=S(=O)(c1cc(F)cc(F)c1)c1cnc2c(F)cccc2c1-c1ccc(F)cc1 = 12
N#Cc1cccc(S(=O)(=O)c2cnc3cc(F)ccc3c2-c2ccc(Cl)cc2)c1 = 13
O=S(=O)(c1ccc(F)c(Cl)c1)c1cnc2cc(F)ccc2c1-c1ccc(F)cc1 = 21
O=S(=O)(c1ccc(F)c(F)c1)c1cnc2c(F)cccc2c1-c1ccc(Cl)cc1 = 13
O=S(=O)(c1cccc(F)c1)c1cnc2c(F)cccc2c1-c1ccc(F)cc1 = 69

In: Item "O=S(=O)(c1cc(Cl)cc(Cl)c1)c1cnc2cc(F)ccc2c1-c1ccc(F)cc1" has what recorded IC50?
Out: 25

In: Fill blank: measured IC50 of the compound "O=S(=O)(c1cc(Cl)cc(Cl)c1)c1cnc2cc(F)ccc2c1-c1ccc(Cl)cc1" is ____.
Out: 94

In: So what does the record say about IC50 for "O=S(=O)(c1ccc(F)c(F)c1)c1cnc2cc(F)ccc2c1-c1ccc(F)cc1" ?
Out: 43

* * *

# test_details: Terminal elimination half life in male beagle dog at 0.5 mg/kg, iv administered as infusion
# Type: ADME, organism-based, Canis lupus familiaris
# run_conditions: in vivo, read-out: beta t1/2 (converted)
value_type: half-life (h)
Return type: number; implicit unit h.

In: Form field: reported half-life of "N#Cc1cccc(S(=O)(=O)c2cnc3cc(F)ccc3c2-c2ccc(Cl)cc2)c1"
Out: 12.2

* * *

# test_details: Tmax in fasted male cynomolgus monkey at 9 mg/kg, po administered as single dose
# Type: ADME, organism-based, Macaca fascicularis
# run_conditions: in vivo
value_type: Tmax (h)
// note: answer is a bare numeric in h

In: Recorded Tmax of "N#Cc1cccc(S(=O)(=O)c2cnc3cc(F)ccc3c2-c2ccc(Cl)cc2)c1" , please.
Out: 1.7

* * *

# test_details: Tmax in female Crl:CD(SD) rat at 4.5 mg/kg, po
# Type: ADME, organism-based
# run_conditions: in vivo
value_type: Tmax (min)
Give the number; min is assumed, so skip it.

In: Requested read-out: Tmax. Entry: "N#Cc1cccc(S(=O)(=O)c2cnc3cc(F)ccc3c2-c2ccc(Cl)cc2)c1"
Out: 45

* * *

# test_details: Cmax in fasted female cynomolgus monkey at 9 mg/kg, po administered as single dose
# Assay type: ADME, organism-based, Macaca fascicularis
# Design: dose 9 mg/kg, route oral
# run_conditions: in vivo
value_type: Cmax (nM)
Please reply with the bare figure in nM and do not write the unit itself.

In: Which Cmax value belongs to "N#Cc1cccc(S(=O)(=O)c2cnc3cc(F)ccc3c2-c2ccc(Cl)cc2)c1" ?
Out: 33
